# Tested on: SW1990 tumor cell line (Pancreas)
# ASSAY NOTES: Cell profiling, SW1990
# Assay type: cell-based
# SETTINGS: Homo sapiens
# Protocol: Cell viability assays were run using standard protocols known to those of skill in art. Cells were plated in 96 well plates at the density of 3,000-10,000 cells per well. Twenty four hours later, cells were treated with increasing concentration of test compounds (1 nM to 1 μM). After another 48 hour, cell survival was measured using CELL-TITER-GLO® reagent (Promega) following the protocol provided by the manufacture. […]
OUTCOME MEASURE: IC50 (µM)
Enter your answer as a number in µM; do not include the unit.

# compound CCC(O)(CC)C(=O)N[C@H]1Cc2ccc3c(c2)C24C5=C(N=C(O5)[C@H](C(C)C)NC1=O)c1ncc(o1)-c1c[nH]c5cccc(c15)-c1cccc2c1NC4O3 (stereo in doubt) ; its IC50 = 0.36

====

# System: A375 tumor cell line (Skin)
# ASSAY NOTES: Cell profiling, A375
# Assay type: cell-based
# SETTINGS: Homo sapiens, A-375
OUTCOME MEASURE: IC50 (nM)
Enter your answer as a number in nM; do not include the unit.

Record CCC(O)(CC)C(=O)N[C@H]1Cc2ccc3c(c2)C24C5=C(N=C(O5)[C@H](C(C)C)NC1=O)c1ncc(o1)-c1c[nH]c5cccc(c15)-c1cccc2c1NC4O3 (stereo in doubt) / A375 tumor cell line (Skin), IC50 recorded as 162

====

# Tested on: SKMEL-5 tumor cell line (Skin)
# ASSAY NOTES: Cell profiling, SKMEL-5
# Format: cell-based
# SETTINGS: Homo sapiens, SK-MEL-5; SKMEL-5, Skin
OUTCOME MEASURE: IC50 (nM)
Enter your answer as a number in nM; do not include the unit.

Record CCC(O)(CC)C(=O)N[C@H]1Cc2ccc3c(c2)C24C5=C(N=C(O5)[C@H](C(C)C)NC1=O)c1ncc(o1)-c1c[nH]c5cccc(c15)-c1cccc2c1NC4O3 (stereo in doubt) [Example 24] / SKMEL-5 tumor cell line (Skin), IC50 recorded as 70

====

# Test system: SKMES-1 tumor cell line (Lung)
# ASSAY NOTES: Cell profiling, SKMES-1
# Type: cell-based
# SETTINGS: Homo sapiens, SK-MES-1; SKMES-1, Lung
OUTCOME MEASURE: IC50 (nM)
Enter your answer as a number in nM; do not include the unit.

Record CCC(O)(CC)C(=O)N[C@H]1Cc2ccc3c(c2)C24C5=C(N=C(O5)[C@H](C(C)C)NC1=O)c1ncc(o1)-c1c[nH]c5cccc(c15)-c1cccc2c1NC4O3 (stereo in doubt) [Example 24] / SKMES-1 tumor cell line (Lung), IC50 recorded as 470

====

# Test system: HCC44 tumor cell line (Lung)
# ASSAY NOTES: Cell profiling, HCC44
# Assay type: cell-based
# SETTINGS: Homo sapiens
OUTCOME MEASURE: pIC50
As a rule, pIC50 stands for the negative log10 of the concentration, concentration in M.

# compound CCC(O)(CC)C(=O)N[C@H]1Cc2ccc3c(c2)C24C5=C(N=C(O5)[C@H](C(C)C)NC1=O)c1ncc(o1)-c1c[nH]c5cccc(c15)-c1cccc2c1NC4O3 (stereo in doubt) ; its pIC50 = 7.44

====

# System: T98G tumor cell line (Glial Cells)
# ASSAY NOTES: Cell profiling, T98G
# Type: cell-based
# SETTINGS: Homo sapiens
OUTCOME MEASURE: IC50 (nM)
Enter your answer as a number in nM; do not include the unit.

# compound CCC(O)(CC)C(=O)N[C@H]1Cc2ccc3c(c2)C24C5=C(N=C(O5)[C@H](C(C)C)NC1=O)c1ncc(o1)-c1c[nH]c5cccc(c15)-c1cccc2c1NC4O3 (stereo in doubt) ; its IC50 = 67

From: patent US8476256B2
